Where do these numbers come from? They come from ChEMBL document CHEMBL1949530.

# assay: Volume of distribution in rat at 2 mg/kg, iv
# Format: ADME, organism-based
# Parameters: dose 2 mg/kg, route intravenous
# protocol_conditions: in vivo
readout_name: Vd (L/kg)
Provide the reading as a plain figure in L/kg.

# query: Vd of entry `O=C(N1CCCCC1)N1CC(O[C@@H](c2ccc(Cl)cc2)c2cccnc2Cl)C1`
3.3

====

# assay: Drug metabolism in human liver microsomes after 10 mins
# Assay type: ADME, Microsome
# protocol_conditions: read-out: Drug metabolism
readout_name: metabolised at 10 min (%)
Provide the reading as a plain figure in %.

Here is how some molecules turned out for metabolised at 10 min.
molecule: O=C(N1CCCCC1)N1CC(OC(c2ccc(F)cc2)c2cccnc2Cl)C1 (racemic)
unit_of_measure: %
metabolised at 10 min: 72
--
molecule: O=C(N1CCCC1)N1CC(OC(c2ccc(Cl)cc2)c2cccnc2Cl)C1 (racemic)
unit_of_measure: %
metabolised at 10 min: 48
--
molecule: O=C(N1CCCCC1)N1CC(OC(c2ccccc2)c2cccnc2)C1 (racemic)
unit_of_measure: %
metabolised at 10 min: 32
--
molecule: COc1ccc(C(OC2CN(C(=O)N3CCCCC3)C2)c2cccnc2Cl)cc1 (racemic)
unit_of_measure: %
metabolised at 10 min: 52

Next:
# query: metabolised at 10 min of entry CN(Cc1ccccc1)C(=O)N1CC(OC(c2ccc(Cl)cc2)c2cccnc2Cl)C1 (racemic)
95
